Please respond with reported T/C for every item in the list.
# Test system: L1210 leukemia ip in BDF1 mice, survival T/C
# Assay: NCI In Vivo Anticancer Drug Screen. Data for tumor model L1210 Leukemia (intraperitoneal) in B6D2F1 (BDF1) mice
# Assay Context: endpoint: mean survival time; dose: 200.0 mg/kg/injection; schedule: Q04DX003 (ip); vehicle: saline; higher = longer survival
Inconclusive results and toxic doses are left out.

Given the compound CNCC(OC)c1ccc(O)c(O)c1 (stereo not drawn) and test system L1210 leukemia ip in BDF1 mice, survival T/C, the measured T/C is 106 % of control

Given the compound COC(=O)CSC/C(=N\Nc1ccccc1)c1ccccc1 and test system L1210 leukemia ip in BDF1 mice, survival T/C, the measured T/C is 97 % of control

Given the compound CN(C)c1ccc(C(N)=O)cn1 and test system L1210 leukemia ip in BDF1 mice, survival T/C, the measured T/C is 102 % of control

Given the compound CN(C)NC(=O)NCCCl and test system L1210 leukemia ip in BDF1 mice, survival T/C, the measured T/C is 105 % of control

Given the compound [Cl][Nd]([Cl])[Cl] and test system L1210 leukemia ip in BDF1 mice, survival T/C, the measured T/C is 100 % of control

Given the compound NC(CNO)C(=O)O (stereo not drawn) and test system L1210 leukemia ip in BDF1 mice, survival T/C, the measured T/C is 97 % of control

Given the compound Cc1cc(Cl)c2cc(Cl)cc(Cl)c2n1 and test system L1210 leukemia ip in BDF1 mice, survival T/C, the measured T/C is 89 % of control

Given the compound N#CCCP(=O)(CCC#N)CCC#N and test system L1210 leukemia ip in BDF1 mice, survival T/C, the measured T/C is 101 % of control

====

# Test system: L1210 leukemia ip in BDF1 mice, survival T/C
# Assay: NCI In Vivo Anticancer Drug Screen. Data for tumor model L1210 Leukemia (intraperitoneal) in B6D2F1 (BDF1) mice
# Assay Context: endpoint: mean survival time; dose: 200.0 mg/kg/injection; schedule: Q04DX003 (ip); vehicle: Klucel (hydroxypropylcellulose) (HPC); higher = longer survival
Toxic doses and inconclusive results are not listed.
Experimental Readout: T/C

The molecule listed as N#Cc1sc2ccccc2c1O has a reported T/C of 95 % of control

The molecule listed as CC(C)(CS(C)(=O)=O)C(=O)OCC(=O)c1ccccc1 has a reported T/C of 105 % of control

The molecule listed as C/C(=N/Nc1ccccc1)c1ccccn1 has a reported T/C of 96 % of control

The molecule listed as CCn1c(=O)c2ccccc2c2cc([N+](=O)[O-])ccc21 has a reported T/C of 97 % of control

The molecule listed as O=C(Cl)c1ccc(OC(Cl)(Cl)Cl)cc1 has a reported T/C of 92 % of control

The molecule listed as S=C(N/N=C/c1ccncc1)Nc1ccccc1 has a reported T/C of 106 % of control

The molecule listed as COCC(=O)CC(C)=O has a reported T/C of 95 % of control

The molecule listed as CN=C(NC)SC has a reported T/C of 93 % of control

====

# System: L1210 leukemia ip in BDF1 mice, survival T/C
# Assay: NCI In Vivo Anticancer Drug Screen. Data for tumor model L1210 Leukemia (intraperitoneal) in B6D2F1 (BDF1) mice
# Assay Context: endpoint: mean survival time; dose: 25.0 mg/kg/injection; schedule: Q01DX009 (ip); vehicle: other; higher = longer survival
# Description: The antitumor activity of compounds was measured in mice bearing transplantable tumors. Survival or tumor size were measured and the results are expressed as the measurement made in the treated group (T) divided by the measurement made in the vehicle treated control group (C). The tumor model used in this assay is L1210 Leukemia (intraperitoneal) in B6D2F1 (BDF1) mice
Inconclusive results and toxic doses are left out.
Experimental Readout: T/C

The compound listed as NC(CSC(c1ccccc1)(c1ccccc1)c1ccc2ccccc2c1)C(=O)O (centres undefined) has a reported T/C of 94 % of control

The compound listed as CCC1(C(C)Br)OC2=C(CC(C#N)(C#N)C(C#N)(C#N)C2)O1 (centres undefined) has a reported T/C of 100 % of control

The compound listed as FC(F)(F)/C([S-])=C(/[S-])C(F)(F)F.FC(F)(F)/C([S-])=C(/[S-])C(F)(F)F.FC(F)(F)/C([S-])=C(/[S-])C(F)(F)F.FC(F)(F)/C([S-])=C(/[S-])C(F)(F)F.[Co+3].[Co+3] has a reported T/C of 104 % of control

The compound listed as Cc1ccccc1N=C(N)Nc1ccccc1C has a reported T/C of 94 % of control

====

Please respond with reported T/C for every item in the list.
# Tested on: L1210 leukemia ip in BDF1 mice, survival T/C
# Assay: NCI In Vivo Anticancer Drug Screen. Data for tumor model L1210 Leukemia (intraperitoneal) in B6D2F1 (BDF1) mice
# Assay Context: endpoint: mean survival time; dose: 200.0 mg/kg/injection; schedule: Q04DX002 (ip); vehicle: Klucel (hydroxypropylcellulose) (HPC); higher = longer survival
Toxic doses and inconclusive results are not listed.

Given the molecule COC(=O)CCCCn1ccc(=O)[nH]c1=O and test system L1210 leukemia ip in BDF1 mice, survival T/C, the measured T/C is 104 % of control

Given the molecule NC(=O)Nc1nc(-c2ccccc2)cc(-c2ccccc2O)n1 and test system L1210 leukemia ip in BDF1 mice, survival T/C, the measured T/C is 91 % of control

Given the molecule COCn1c(C(=O)c2ccc(OC)cc2)cc2ccccc21 and test system L1210 leukemia ip in BDF1 mice, survival T/C, the measured T/C is 95 % of control

Given the molecule CCCc1nc2ccccc2c(=O)n1/N=C/c1ccc(Cl)cc1Cl and test system L1210 leukemia ip in BDF1 mice, survival T/C, the measured T/C is 92 % of control

Given the molecule O=P(c1cccc(C(F)(F)F)c1)(c1cccc(C(F)(F)F)c1)c1cccc(C(F)(F)F)c1.O=P(c1cccc(C(F)(F)F)c1)(c1cccc(C(F)(F)F)c1)c1cccc(C(F)(F)F)c1.[Cl][Sn]([Cl])([Cl])[Cl] and test system L1210 leukemia ip in BDF1 mice, survival T/C, the measured T/C is 96 % of control

Given the molecule CCCCCCCCCCCCCCCCCC(=O)Oc1c(C(C)CC)cc([N+](=O)[O-])cc1[N+](=O)[O-] (stereo not drawn) and test system L1210 leukemia ip in BDF1 mice, survival T/C, the measured T/C is 86 % of control

Given the molecule CCCCCCCCCCCCCCCCCC(=O)OCC(COC(=O)CCCCCCCC(CO)CCCCCCCCC)OC(=O)CCCCCCCC(CO)CCCCCCCCC (stereo not drawn) and test system L1210 leukemia ip in BDF1 mice, survival T/C, the measured T/C is 101 % of control

Given the molecule Cn1cccc1/C=N/O and test system L1210 leukemia ip in BDF1 mice, survival T/C, the measured T/C is 98 % of control

Given the molecule CC(=O)Oc1c(-c2ccccc2)cc([N+](=O)[O-])cc1[N+](=O)[O-] and test system L1210 leukemia ip in BDF1 mice, survival T/C, the measured T/C is 94 % of control

Given the molecule COc1ccc(C2Nc3ccccc3NC3CC(C)(C)CC(=O)C32)cc1 (stereo not drawn) and test system L1210 leukemia ip in BDF1 mice, survival T/C, the measured T/C is 98 % of control

Given the molecule CCOC(=O)c1c(-c2ccc([N+](=O)[O-])cc2)c(C#N)n(-c2ccccc2)c1C and test system L1210 leukemia ip in BDF1 mice, survival T/C, the measured T/C is 92 % of control

Given the molecule CCOC(=O)c1ccccc1C(=O)c1ccccc1 and test system L1210 leukemia ip in BDF1 mice, survival T/C, the measured T/C is 100 % of control

Given the molecule CCc1ccc(/C(C#N)=C/C=C/c2ccccc2)cc1 and test system L1210 leukemia ip in BDF1 mice, survival T/C, the measured T/C is 102 % of control

Given the molecule O=C(O)c1c(Cl)n(-c2ccccc2)c2ccccc12 and test system L1210 leukemia ip in BDF1 mice, survival T/C, the measured T/C is 93 % of control

Given the molecule CC(C)c1nc(CO)c(CO)n1Cc1ccccc1 and test system L1210 leukemia ip in BDF1 mice, survival T/C, the measured T/C is 102 % of control

Given the molecule CC(=O)c1ccc(Oc2ccccc2)cc1 and test system L1210 leukemia ip in BDF1 mice, survival T/C, the measured T/C is 93 % of control

Given the molecule CC(C)(C)OC(=O)NC(CC(=O)O)C(=O)O (stereo not drawn) and test system L1210 leukemia ip in BDF1 mice, survival T/C, the measured T/C is 101 % of control

Given the molecule O=C(NCc1cccc2ccccc12)Nc1ccccc1Cl and test system L1210 leukemia ip in BDF1 mice, survival T/C, the measured T/C is 104 % of control

Given the molecule O=C(COc1ccccc1)Nc1ccc(Br)cc1 and test system L1210 leukemia ip in BDF1 mice, survival T/C, the measured T/C is 103 % of control

Given the molecule CN(Cc1ccccc1)C(=O)NC(C)(C)C and test system L1210 leukemia ip in BDF1 mice, survival T/C, the measured T/C is 102 % of control

Given the molecule O=Cc1ccc2c(c1)C(=O)c1ccccc1C2=O and test system L1210 leukemia ip in BDF1 mice, survival T/C, the measured T/C is 97 % of control

Given the molecule CN(Cc1ccccc1)N=Nc1ccccc1 and test system L1210 leukemia ip in BDF1 mice, survival T/C, the measured T/C is 116 % of control

Given the molecule Cc1ccc(C)n1CCn1c(C)ccc1C and test system L1210 leukemia ip in BDF1 mice, survival T/C, the measured T/C is 93 % of control
